- Test system: A549
- procedure_details: Antiproliferative activity against human A549 cells harboring KRAS G12S point mutant assessed as cell growth inhibition after 72 hrs by Celltiter-Glo luminescent cell viability assay
- Assay type: functional, cell-based
- experimental_conditions: A549, 72 h
pIC50: −log10 of the molar value.
parameter: pIC50

Here's what some known entries look like.
{"compound": "C=CC(=O)N1CCN(c2nc(=O)n(-c3ccccc3C(C)C)c3nc(-c4ccccc4O)c(Cl)cc23)[C@@H](C)C1", "reported": 4.91}
{"compound": "C=CC(=O)N1CCN(c2nc(=O)n(-c3ccccc3C(C)C)c3cc(-c4c(O)cccc4F)c(Cl)cc23)[C@@H](C)C1", "reported": 4.82}
{"compound": "C=CC(=O)N1CCN(c2nc(=O)n(-c3ccccc3C(C)C)c3nc(-c4c(O)cccc4F)c(Cl)cc23)CC1", "reported": 4.94}
{"compound": "C=CC(=O)N1CCN(c2nc(=O)n(-c3c(C)cccc3C(C)C)c3nc(-c4c(O)cccc4F)c(Cl)cc23)[C@@H](C)C1", "reported": 4.92}
{"compound": "C=CC(=O)N1CCN(c2nc(=O)n(-c3c(C(C)C)ccnc3C)c3nc(-c4c(O)cccc4F)c(Cl)cc23)[C@@H](C)C1", "reported": 4.49}
{"compound": "C=CC(=O)N1CCN(c2nc(=O)n(-c3ccccc3C(C)C)c3cc(-c4ccccc4Cl)c(Cl)cc23)[C@@H](C)C1", "reported": 5.13}

P = C=CC(=O)N1CCN(c2nc(=O)n(-c3c(C)ccnc3C(C)C)c3nc(-c4c(O)cccc4F)c(Cl)cc23)[C@@H](C)C1
Q = C=CC(=O)N1CCN(c2nc(=O)n(-c3ccccc3C(C)C)c3cc(-c4ccccc4F)c(Cl)cc23)CC1
Inquiry: Returns the identifier with the smallest measured pIC50 among P and Q . Pick one; state its label.
Reply text: P

1 = C=CC(=O)N1CCN(c2nc(=O)n(-c3c(C(C)C)ccnc3C)c3nc(-c4c(O)cccc4F)c(F)cc23)[C@@H](C)C1
2 = C=CC(=O)N1CCN(c2nc(=O)n(-c3ccccc3C(C)C)c3cc(-c4ccccc4C(F)(F)F)c(Cl)cc23)[C@@H](C)C1
Inquiry: Returns the identifier with the smallest measured pIC50 among 1 and 2 . Pick one; state its label.
Reply text: 1
(1: 4.31, 2: 5.13)

A = C=CC(=O)N1CCN(c2nc(=O)n(-c3c(C)ccnc3C(C)C)c3nc(-c4c(O)cccc4F)c(F)cc23)[C@@H](C)C1 [SOTORASIB]
B = C=CC(=O)N1CCN(c2nc(=O)n(-c3c(C)cccc3C(C)C)c3nc(-c4c(O)cccc4F)c(F)cc23)[C@@H](C)C1
Inquiry: Compare the recorded pIC50 of A and B ; state which is larger. Pick one; state its label.
Reply text: B
